Provenance of the data: the supplement of paper PMC9112550

System: Escherichia coli TOP10
test: shrunken log2 fold change of peptide-encoding DNA abundance (4.5 h post-induction vs induction); higher = less antimicrobial activity (less host growth inhibition)
conditions.used: time post-induction: 4.5 h; library: site-saturation at positions 5, 18, 19, 20
Outcome label depends on shrunken log2 fold change relative to -0.4: at/above gives true, below gives false.

As a guide, the following entries are already answered.
biosequence: RRIRSRPPRLPRPRPRPSENPRP
tested.target: Escherichia coli TOP10
label.class: true

biosequence: RRIRYRPPRLPRPRPRPWGSPRP
tested.target: Escherichia coli TOP10
label.class: false

biosequence: RRIRQRPPRLPRPRPRPSCMPRP
tested.target: Escherichia coli TOP10
label.class: false

biosequence: RRIRSRPPRLPRPRPRPMYGPRP
tested.target: Escherichia coli TOP10
label.class: false

Can RRIRERPPRLPRPRPRPSDWPRP be said to have shrunken log2 fold change at or above -0.4?
true

Given RRIRERPPRLPRPRPRPSNVPRP , state whether its shrunken log2 fold change is at least -0.4.
false

Hi, just wondering whether RRIRYRPPRLPRPRPRPERPPRP shows shrunken log2 fold change of -0.4 or higher.
true

Check if shrunken log2 fold change >= -0.4 (inclusive). Item: RRIRDRPPRLPRPRPRPETTPRP
true

Test whether the sequence RRIRWRPPRLPRPRPRPEMMPRP records shrunken log2 fold change of -0.4 or higher.
true

Given the entry RRIRTRPPRLPRPRPRPPEAPRP , answer whether its shrunken log2 fold change meets or surpasses -0.4.
true

Is reported shrunken log2 fold change greater than or equal to -0.4 here: RRIRFRPPRLPRPRPRPQVIPRP
true

* * *

Test system: Escherichia coli TOP10
test: shrunken log2 fold change of peptide-encoding DNA abundance (4.5 h post-induction vs induction); higher = less antimicrobial activity (less host growth inhibition)
conditions.used: time post-induction: 4.5 h; library: site-saturation at positions 5, 18, 19, 20
quantity.name: shrunken log2 fold change

Sample answers from the record:
biosequence: RRIRMRPPRLPRPRPRPCTPPRP
shrunken log2 fold change: 0.154
//
biosequence: RRIRPRPPRLPRPRPRPLRCPRP
shrunken log2 fold change: 0.394
//
biosequence: RRIRHRPPRLPRPRPRPESDPRP
shrunken log2 fold change: -0.227

Per the record, RRIRQRPPRLPRPRPRPAFGPRP has shrunken log2 fold change of 0.171

response.value for RRIRERPPRLPRPRPRPTKYPRP (field: shrunken log2 fold change) = -0.568

Looking up RRIRNRPPRLPRPRPRPHANPRP , I found its shrunken log2 fold change recorded as 0.0684

Value of measured shrunken log2 fold change for the entry RRIRKRPPRLPRPRPRPCLLPRP : -0.037

shrunken log2 fold change reported for this sequence RRIRRRPPRLPRPRPRPLDMPRP : -0.114

* * *

Test system: Escherichia coli TOP10
test: shrunken log2 fold change of peptide-encoding DNA abundance (4.5 h post-induction vs induction); higher = less antimicrobial activity (less host growth inhibition)
conditions.used: time post-induction: 4.5 h; library: site-saturation at positions 5, 18, 19, 20
quantity.name: shrunken log2 fold change
Respond using a number only.

biosequence: RRIRHRPPRLPRPRPRPTQPPRP
tested.target: Escherichia coli TOP10
reported.value: 0.306

biosequence: RRIRDRPPRLPRPRPRPCFSPRP
tested.target: Escherichia coli TOP10
reported.value: -0.0275

biosequence: RRIRVRPPRLPRPRPRPMSGPRP
tested.target: Escherichia coli TOP10
reported.value: -0.0469

biosequence: RRIRSRPPRLPRPRPRPNVYPRP
tested.target: Escherichia coli TOP10
reported.value: -0.257

biosequence: RRIRWRPPRLPRPRPRPEMKPRP
tested.target: Escherichia coli TOP10
reported.value: 0.271

Please fill in: shrunken log2 fold change reported for RRIRKRPPRLPRPRPRPCPWPRP = 0.332

The reported shrunken log2 fold change of the sequence RRIRIRPPRLPRPRPRPYGFPRP was -0.0889

The sequence identified as RRIRTRPPRLPRPRPRPVTGPRP registered its shrunken log2 fold change at -0.083

Measured shrunken log2 fold change of RRIRCRPPRLPRPRPRPDKVPRP : -0.224

In plain terms, RRIRMRPPRLPRPRPRPQINPRP has a documented shrunken log2 fold change of -0.0723

* * *

Tested on: Escherichia coli TOP10
test: shrunken log2 fold change of peptide-encoding DNA abundance (4.5 h post-induction vs induction); higher = less antimicrobial activity (less host growth inhibition)
conditions.used: time post-induction: 4.5 h; library: site-saturation at positions 5, 18, 19, 20
Classification field: Fulfilled = shrunken log2 fold change at or over 0.04; Not fulfilled = shrunken log2 fold change under 0.04.

Check out these entries, answers already filled in.
biosequence: RRIRMRPPRLPRPRPRPGKYPRP
label.class: Fulfilled
//
biosequence: RRIRERPPRLPRPRPRPYKEPRP
label.class: Not fulfilled
//
biosequence: RRIRVRPPRLPRPRPRPFEPPRP
label.class: Fulfilled
//
biosequence: RRIRCRPPRLPRPRPRPAGAPRP
label.class: Fulfilled
//
biosequence: RRIRCRPPRLPRPRPRPDCPPRP
label.class: Not fulfilled

Could you verify whether the entry RRIRFRPPRLPRPRPRPYICPRP shows shrunken log2 fold change of no less than 0.04?
Not fulfilled

Please tell me: is the sequence RRIRKRPPRLPRPRPRPMVKPRP at or over 0.04 in terms of shrunken log2 fold change?
Fulfilled

Decide: is the reported value of shrunken log2 fold change for RRIRCRPPRLPRPRPRPILKPRP equal to or greater than 0.04?
Not fulfilled

Decide: shrunken log2 fold change of RRIRPRPPRLPRPRPRPVLIPRP >= 0.04?
Not fulfilled

Determine whether this sequence has shrunken log2 fold change no lower than 0.04: RRIRKRPPRLPRPRPRPDMHPRP
Fulfilled

Exam item: decide whether the reported shrunken log2 fold change for RRIRMRPPRLPRPRPRPNDRPRP is at least 0.04.
Fulfilled

* * *

System: Escherichia coli TOP10
test: shrunken log2 fold change of peptide-encoding DNA abundance (4.5 h post-induction vs induction); higher = less antimicrobial activity (less host growth inhibition)
conditions.used: time post-induction: 4.5 h; library: site-saturation at positions 5, 18, 19, 20
Parameter threshold = -0.07. Response is met when shrunken log2 fold change meets or exceeds it, else not met.

Recorded results for 7 sequences are shown here.
biosequence: RRIRVRPPRLPRPRPRPVPIPRP
label.class: not met
//
biosequence: RRIRMRPPRLPRPRPRPWVLPRP
label.class: met
//
biosequence: RRIRLRPPRLPRPRPRPVPLPRP
label.class: not met
//
biosequence: RRIRFRPPRLPRPRPRPIMCPRP
label.class: not met
//
biosequence: RRIRIRPPRLPRPRPRPELLPRP
label.class: met
//
biosequence: RRIRARPPRLPRPRPRPTYDPRP
label.class: not met
//
biosequence: RRIRVRPPRLPRPRPRPYLPPRP
label.class: not met

# check: shrunken log2 fold change of RRIRNRPPRLPRPRPRPFCAPRP is greater than or equal to -0.07
met

* * *

System: Escherichia coli TOP10
test: shrunken log2 fold change of peptide-encoding DNA abundance (4.5 h post-induction vs induction); higher = less antimicrobial activity (less host growth inhibition)
conditions.used: time post-induction: 4.5 h; library: site-saturation at positions 5, 18, 19, 20
quantity.name: shrunken log2 fold change

biosequence: RRIRERPPRLPRPRPRPPCMPRP
tested.target: Escherichia coli TOP10
shrunken log2 fold change: -0.272
--
biosequence: RRIRMRPPRLPRPRPRPLNIPRP
tested.target: Escherichia coli TOP10
shrunken log2 fold change: -0.163
--
biosequence: RRIRIRPPRLPRPRPRPFMWPRP
tested.target: Escherichia coli TOP10
shrunken log2 fold change: -0.792

Sample RRIRARPPRLPRPRPRPHAWPRP ; shrunken log2 fold change observed: 0.375

* * *

System: Escherichia coli TOP10
test: shrunken log2 fold change of peptide-encoding DNA abundance (4.5 h post-induction vs induction); higher = less antimicrobial activity (less host growth inhibition)
conditions.used: time post-induction: 4.5 h; library: site-saturation at positions 5, 18, 19, 20
Each entry falls into one class according to its shrunken log2 fold change; the ranges are low value: < -0.2; medium value: ≥ -0.2 and < 0.09; high value: ≥ 0.09

The examples below pair each entry with its known result.
biosequence: RRIRRRPPRLPRPRPRPEVVPRP
tested.target: Escherichia coli TOP10
label.class: high value
--
biosequence: RRIRNRPPRLPRPRPRPVKDPRP
tested.target: Escherichia coli TOP10
label.class: medium value
--
biosequence: RRIRIRPPRLPRPRPRPLAHPRP
tested.target: Escherichia coli TOP10
label.class: low value
--
biosequence: RRIRHRPPRLPRPRPRPYCFPRP
tested.target: Escherichia coli TOP10
label.class: low value
--
biosequence: RRIRYRPPRLPRPRPRPVKAPRP
tested.target: Escherichia coli TOP10
label.class: medium value
--
biosequence: RRIRCRPPRLPRPRPRPGEWPRP
tested.target: Escherichia coli TOP10;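 also: peptides expressed intracellularly from a pBAD plasmid library in pooled LB shake-flask culture, induced with 0.3% L-arabinose, DNA abundance read by NGS, three biological replicates, DESeq2 with apeglm shrinkage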
label.class: high value

Please let me know in which category the item RRIRFRPPRLPRPRPRPDCMPRP belongs.
low value

Lab log: RRIRNRPPRLPRPRPRPYHSPRP — assign shrunken log2 fold change category
low value

// return the class label for RRIRMRPPRLPRPRPRPDTVPRP
medium value

Category of RRIRLRPPRLPRPRPRPETPPRP , please.
high value

Would you mind sorting RRIRQRPPRLPRPRPRPWGRPRP into the appropriate category?
medium value

Bin? RRIRPRPPRLPRPRPRPQCNPRP
medium value
